# Assay system: mutant G12C K-RAS (Homo sapiens, UniProt P01116, G12C)
# Construct: made in house; host or cells: E. coli BL21
# Assay summary: covalent adduct formation (CAF) with mutant G12C K-RAS
# Type: binding
# Measurement context: Table 6; 10 μM, 1 h
Attribute measured: % CAF @ 10 μM,1 h (%)

Some molecules with recorded % CAF @ 10 μM,1 h:
C=CC(=O)N1C[C@H](C)N(c2nc(=O)n3c4c(c(-c5ccc(F)cc5F)c(Cl)cc24)OC[C@@H]3CN2CCN(C)CC2=O)C[C@H]1C [Example 274]    67
C=CC(=O)N1C[C@H](C)N(c2nc(=O)n3c4c(c(-c5ccc(F)cc5F)c(Cl)cc24)OC[C@H]3CCCN2CC(F)C2)C[C@H]1C [Example 279]    97.5
C=CC(=O)N1C[C@H](C)N(c2nc(=O)n3c4c(c(-c5ccc(F)cc5F)c(Cl)cc24)OC[C@H]3CCCO)C[C@H]1C [Example 251]    85.3
C=CC(=O)N1C[C@H](C)N(c2nc(=O)n3c4c(c(-c5ccc(F)cc5F)c(Cl)cc24)OC[C@@H]3COC[C@H]2CCCN2C)C[C@H]1C [Example 277]    76.9
C=CC(=O)N1C[C@H](C)N(c2nc(=O)n3c4c(c(-c5ccc(F)cc5F)c(Cl)cc24)OC[C@@H]3CCN2CCOCC2)C[C@H]1C [Example 217]    83.4

1: C=CC(=O)N1C[C@H](C)N(c2nc(=O)n3c4c(c(-c5ccc(F)cc5F)c(Cl)cc24)OC[C@H]3CCCN(CC(F)(F)F)C2COC2)C[C@H]1C [Example 331]
2: C=CC(=O)N1C[C@H](C)N(c2nc(=O)n3c4c(c(-c5ccc(F)cc5F)c(Cl)cc24)OC[C@@H]3CN2CCC(F)(F)C2)C[C@H]1C (stereo in doubt) [Example 202]
3: C=CC(=O)N1C[C@H](C)N(c2nc(=O)n3c4c(c(-c5ccc(F)cc5F)c(Cl)cc24)OCC3CN2CCC(F)(F)C2)C[C@H]1C (stereo in doubt) [Example 207]
4: C=CC(=O)N1CCN(c2nc(=O)n3c4c(c(-c5c(O)cccc5F)c(Cl)cc24)OC[C@H]3CN2CCC(F)(F)C2)[C@@H](C)C1 (atropisomer, axis not shown) [Example 227]
Form: Sort by [% CAF @ 10 μM,1 h] Order [ ascending ] Thanks in advance for listing the labels in the requested order.
4, 2, 1, 3
(4: 0%, 2: 34.2%, 1: 59.2%, 3: 85.6%)

----------
# Assay system: mutant G12C K-RAS (Homo sapiens, UniProt P01116, G12C)
# Construct: made in house; host or cells: E. coli BL21
# Assay summary: covalent adduct formation (CAF) with mutant G12C K-RAS
# Type: binding
# Measurement context: Table 2, Pyrimidone Core-Morpholine Substituted; after 60 minutes at 10 micromolar
# Description: Embodiments disclosed herein are further illustrated by the following examples in Tables 1-4 and the Examples hereinbelow. The Tables indicate the compound number, structure, the observed mass spectral molecular weight peak, and covalent adduct formation (CAF) with a mutant G12C K-RAS after 60 minutes at a concentration of 10 micromolar.
Attribute measured: % CAF (60 min) (%)

Sample records with % CAF (60 min):
C=CC(=O)N1C[C@H](C)N(c2nc(=O)n3c4c(c(-c5c(O)cccc5F)c(Cl)cc24)OC[C@H]3CO)C[C@H]1C [Example 32]    0
C=CC(=O)N1C[C@H](C)N(c2nc(=O)n3c4c(c(-c5c(O)cccc5F)c(Cl)cc24)OC[C@H]3CO)C[C@H]1C [Example 30]    68.1
C=CC(=O)N1CCN(c2nc(=O)n3c4c(c(-c5c(O)cccc5F)c(Cl)cc24)OC[C@H]3CO)CC1    0

P: C=CC(=O)N1C[C@H](C)N(c2nc(=O)n3c4c(c(-c5c(O)cccc5F)c(Cl)cc24)OC[C@@H]3CO)C[C@H]1C [Example 28]
Q: C=CC(=O)N1CCN(c2nc(=O)n3c4c(c(-c5c(O)cccc5F)c(Cl)cc24)OC[C@@H]3CO)CC1
R: C=CC(=O)N1CCN(c2nc(=O)n3c4c(c(-c5c(O)cccc5F)c(Cl)cc24)OC[C@@H]3CO)[C@@H](C)C1 (single isomer, unassigned) [Example 24]
Please produce an ascending ranking of these compounds based on % CAF (60 min). Order the labels as requested and give them as your answer.
R, P, Q
(R: 0%, P: 1.3%, Q: 72.8%)

----------
# Assay system: mutant G12C K-RAS (Homo sapiens, UniProt P01116, G12C)
# Construct: made in house; host or cells: E. coli BL21
# Assay summary: covalent adduct formation (CAF) with mutant G12C K-RAS
# Assay type: binding
# Measurement context: Table 1, Pyrimidone Core-Morpholine Unsubstituted; after 60 minutes at 10 micromolar
Attribute measured: % CAF (60 min) (%)

Worked cases, answers included:
C=CC(=O)N1CCN(c2nc(=O)n3c4c(c(N(C)c5ccccc5C)c(Cl)cc24)OCC3)CC1    17.6
C=CC(=O)N1C[C@H](C)N(c2nc(=O)n3c4c(c(-c5ccc(F)cc5F)c(Cl)cc24)OCC3)C[C@H]1C    68
C=CC(=O)N1C[C@H](C)N(c2nc(=O)n3c4c(c(-c5cccc6cccc(Cl)c56)ccc24)OCC3)C[C@H]1C    0
C#CC(=O)N1C[C@H](C)N(c2nc(=O)n3c4c(c(-c5ccc(F)cc5F)c(Cl)cc24)OCC3)C[C@H]1C    46

A: C=CC(=O)N1C[C@H](C)N(c2nc(=O)n3c4c(c(-c5cccc6ccccc56)ccc24)OCC3)C[C@H]1C
B: C=CC(=O)N1C[C@H](C)N(c2nc(=O)n3c4c(c(-c5cc(F)cc(Cl)c5)ccc24)OCC3)C[C@H]1C
C: C=CC(=O)N1CCN(c2nc(=O)n3c4c(c(-c5c(C)ccc6[nH]ncc56)c(Cl)cc24)OCC3)CC1 [Example 7]
D: C=CC(=O)N1C[C@H](C)N(c2nc(=O)n3c4c(c(-c5ccc(Cl)cc5F)ccc24)OCC3)C[C@H]1C
E: C=C(F)C(=O)N1CCN(c2nc(=O)n3c4c(c(-c5c(O)cccc5F)c(Cl)cc24)OCC3)C[C@@H]1CC#N (atropisomer, axis not shown)
Order the 5 compounds from highest to lowest % CAF (60 min). # answer = labels listed in requested order
C, E, A, D, B
(C: 79.6%, E: 8.5%, A: 3%, D: 2%, B: 0%)

1: C=CC(=O)N1C[C@H](C)N(c2nc(=O)n3c4c(c(-c5ccc(F)c(Cl)c5)ccc24)OCC3)C[C@H]1C
2: C=CC(=O)N1CCN(c2nc(=O)n3c4c(c(-c5c(C)ccc6[nH]nc(C)c56)c(Cl)cc24)OCC3)CC1
Compare the recorded % CAF (60 min) of 1 and 2 ; state which is larger. Indicate your choice by writing its label.
2
(2: 72.6%, 1: 0%)

I: C=CC(=O)N1CCN(c2nc(=O)n3c4c(c(-c5c(O)cccc5F)c(Cl)cc24)OCC3)CC1
II: C=CC(=O)N1CCN(c2nc(=O)n3c4c(c(-c5c(C)ccc6[nH]ncc56)c(Cl)cc24)OCC3)CC1 [Example 8]
Smaller % CAF (60 min) value, I vs II ? Use the label to indicate which entry you chose.
II
(II: 0%, I: 87.6%)

----------
# Assay system: mutant G12C K-RAS (Homo sapiens, UniProt P01116, G12C)
# Construct: made in house; host or cells: E. coli BL21
# Assay summary: covalent adduct formation (CAF) with mutant G12C K-RAS
# Type: binding
# Measurement context: Table 6; 10 μM, 1 h
Attribute measured: % CAF @ 10 μM,1 h (%)

The cases that follow already have their % CAF @ 10 μM,1 h on record.
C=CC(=O)N1CCN(c2nc(=O)n3c4c(c(-c5ccc(F)cc5F)c(Cl)cc24)OCC3)[C@@H](C)C1    89.6
C=CC(=O)N1C[C@H](C)N(c2nc(=O)n3c4c(c(-c5c(C)ccc6[nH]ncc56)c(Cl)cc24)OC[C@@H]3CCCN2C3CCC2COC3)C[C@H]1C [Example 281]    0
C=CC(=O)N1C[C@H](C)N(c2nc(=O)n3c4c(c(-c5c(O)cccc5F)c(Cl)cc24)OC[C@H]3CN2CCOCC2)C[C@H]1C (atropisomer, axis not shown) [Example 209]    85
C=CC(=O)N1C[C@H](C)N(c2nc(=O)n3c4c(c(-c5ccc(F)cc5F)c(C5CC5)cc24)OC[C@H]3CCCN2C[C@@H]3C[C@H]2CO3)C[C@H]1C    81.1
C=CC(=O)N1C[C@H](C)N(c2nc(=O)n3c4c(c(-c5ccc(F)cc5F)c(Cl)cc24)OC[C@H]3CC2CCN(CC(F)F)CC2)C[C@H]1C    87

I: C=CC(=O)N1C[C@H](C)N(c2nc(=O)n3c4c(c(-c5ccc(F)cc5F)c(Cl)cc24)OC[C@@H]3CN(C)CC(F)(F)F)C[C@H]1C
II: C=CC(=O)N1CCN(c2nc(=O)n3c4c(c(-c5c(O)cccc5F)c(Cl)cc24)OC[C@H]3CN2CCOCC2)[C@@H](C)C1 [Example 199]
Dear colleague, could you let me know whether I or II has the lower recorded % CAF @ 10 μM,1 h? Thanks. Returns: label corresponding to the selected item.
II
(II: 0%, I: 78.5%)
